Known Population Mitotic Cells (%) of a selection of compounds
# Test system: Fibroblast
# procedure_summary: Multiplex assay against human fibroblast
# Format: toxicity, cell-based
# particulars: 12 h, 10 µM, compound concentration 10 uM, replicate 2
metric_name: Population Mitotic Cells (%)

[
  {
    "compound": "CSc1ccccc1N1CCN(CCCCCC(=O)NC2CCCc3ccccc32)CC1.Cl (centres undefined)",
    "metric_name": "Population Mitotic Cells (%)",
    "obs_value": 33
  },
  {
    "compound": "Cc1ccc(F)cc1C(=O)Nc1ccc(C(=O)N2Cc3cccn3Cc3ccccc32)c(Cl)c1 [LIXIVAPTAN]",
    "metric_name": "Population Mitotic Cells (%)",
    "obs_value": 68
  },
  {
    "compound": "CNC[C@H](O)c1ccc(O)c(O)c1 [EPINEPHRINE]",
    "metric_name": "Population Mitotic Cells (%)",
    "obs_value": 67
  },
  {
    "compound": "N[C@@]1(C(=O)O)CO[C@H]2[C@H](C(=O)O)[C@H]21 [LY-379268]",
    "metric_name": "Population Mitotic Cells (%)",
    "obs_value": 78
  },
  {
    "compound": "Cc1ccc(/C(=C\\CN2CCCC2)c2ccccn2)cc1 [TRIPROLIDINE]",
    "metric_name": "Population Mitotic Cells (%)",
    "obs_value": 50
  },
  {
    "compound": "CC(=O)NCCc1c(Cc2ccccc2)[nH]c2ccccc12 [LUZINDOLE]",
    "metric_name": "Population Mitotic Cells (%)",
    "obs_value": 78
  },
  {
    "compound": "O=C(NCC(=O)N1CC[C@H](N[C@H]2CC[C@@](O)(c3ccc(-c4ncccn4)cn3)CC2)C1)c1cccc(C(F)(F)F)c1 [PF-4136309]",
    "metric_name": "Population Mitotic Cells (%)",
    "obs_value": 75
  },
  {
    "compound": "O=C(O)Cc1ccccc1Nc1c(Cl)cccc1Cl [DICLOFENAC]",
    "metric_name": "Population Mitotic Cells (%)",
    "obs_value": 61
  },
  {
    "compound": "Cc1nc2ccc(Oc3ccc(F)cc3)cc2c(=O)n1C[C@H]1CCCN(C(C)C)C1.Cl",
    "metric_name": "Population Mitotic Cells (%)",
    "obs_value": 38
  }
]
